# target: GSK3α (Homo sapiens, UniProt P49840)
# Sequence (P49840 whole entry): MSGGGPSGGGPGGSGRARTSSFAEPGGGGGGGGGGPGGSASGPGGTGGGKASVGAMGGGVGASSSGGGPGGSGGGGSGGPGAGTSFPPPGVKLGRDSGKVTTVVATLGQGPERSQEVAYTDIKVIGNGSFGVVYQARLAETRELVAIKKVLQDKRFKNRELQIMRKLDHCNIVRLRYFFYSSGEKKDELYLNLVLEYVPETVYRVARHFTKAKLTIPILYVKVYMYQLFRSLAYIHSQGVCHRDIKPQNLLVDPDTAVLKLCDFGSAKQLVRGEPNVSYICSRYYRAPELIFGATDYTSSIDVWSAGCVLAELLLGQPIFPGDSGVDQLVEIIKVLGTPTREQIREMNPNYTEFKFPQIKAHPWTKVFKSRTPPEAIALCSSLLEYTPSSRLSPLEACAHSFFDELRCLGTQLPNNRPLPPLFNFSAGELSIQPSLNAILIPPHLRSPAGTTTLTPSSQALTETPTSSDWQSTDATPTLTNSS
# measurement_notes: Z′-LYTE kinase inhibition assay
# Format: biochemical
# experimental_setup: non-DNA tagged ligand
reported_metric: pIC50
// pIC50 here means minus log10 of the molar concentration (mol/L)

Entry under test: Cl.Cn1cc(C2=C(c3c4n(c5ccccc35)CCC(CN)C4)C(=O)NC2=O)c2ccccc21 (stereo not shown) [bisX, bisindolylmaleimide X] . Its pIC50 was 6.94
